Attribution: paper PMC9100969

substrate: CCCC(=O)Oc1ccc([N+](=O)[O-])cc1; experiment: purified protein; type: biochemical, Sutcliffiella cohnii; conditions: 50 mM Tris-HCl pH 8.0, 20 °C
Readout Label: Km (µM)
Give just the numeric value; µM need not be written.

What measured Km goes with EstN7 (Sutcliffiella cohnii) (protein, recombinant, purified from E. coli BL21(DE3); dimer; catalytic triad S157, D254, H284) MKNRIDPELRAMLDMFPPLNLDDVQATRKAMEEAAQLTELPVDEEVVVSNRMVPGPEDNPYVRVRIYEPKEKIEKLPGLLWIHGGGYVLGAPEGDDLLCQRFVKEANCVVVSVDYRLAPEHPYPAPLEDCYAALQWFAKKVDELGVDASRIGVGGQSAGGGLTAALALLARDRKGPELCFQMPLYPMIDDKNNSPSSLEITGNLIWNHDLNEKGWSMYLDGKNGTDDVPVHAAPARATDLTNLPYTYTCVGQLDPFRDETLDYVKRLCQAGVDVEFHLYPGAYHGFETLNPAAAVSQRALAEYVGAVKHVLNREKVVERK ?
57
